# system: 3-oxo-5-alpha-steroid 4-dehydrogenase 2 (Homo sapiens, UniProt P31213)
# Sequence (P31213 whole entry): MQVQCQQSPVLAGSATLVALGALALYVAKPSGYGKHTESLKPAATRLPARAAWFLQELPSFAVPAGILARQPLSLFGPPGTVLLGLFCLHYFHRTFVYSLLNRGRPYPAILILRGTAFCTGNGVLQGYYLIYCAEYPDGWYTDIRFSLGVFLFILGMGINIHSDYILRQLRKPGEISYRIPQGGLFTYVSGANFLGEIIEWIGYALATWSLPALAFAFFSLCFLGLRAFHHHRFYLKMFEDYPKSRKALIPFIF
# experimental_details: In vitro inhibition of human steroid 5-alpha-reductase type 2 in SW-13-transfected cells
quantity: IC50

Reference set (2 entries):
compound | IC50
CN(C=O)[C@H]1CCC2C3CC[C@H]4NC(=O)C=C[C@]4(C)C3CC[C@@]21C (some centres not stated) | > 1000 nM
CCCCCCN(C=O)[C@H]1CCC2C3CC[C@H]4N(C)C(=O)CC[C@]4(C)C3CC[C@@]21C (some centres not stated) | > 100 nM

Which IC50 is reported with 3-oxo-5-alpha-steroid 4-dehydrogenase 2 (Homo sapiens, UniProt P31213) for this entry: CCCCCCCCN(C=O)[C@H]1CCC2C3CC[C@H]4N(C)C(=O)CC[C@]4(C)C3CC[C@@]21C (some centres not stated) ?
18.4 nM

Which IC50 is reported with 3-oxo-5-alpha-steroid 4-dehydrogenase 2 (Homo sapiens, UniProt P31213) for this entry: CN(C=O)[C@H]1CCC2C3CC[C@H]4NC(=O)CC[C@]4(C)C3CC[C@@]21C (some centres not stated) ?
> 1000 nM

Which IC50 is reported with 3-oxo-5-alpha-steroid 4-dehydrogenase 2 (Homo sapiens, UniProt P31213) for this entry: CCCCCN(C(=O)c1ccccc1)[C@H]1CCC2C3CC[C@H]4N(C)C(=O)CC[C@]4(C)C3CC[C@@]21C (some centres not stated) ?
> 100 nM

Which IC50 is reported with 3-oxo-5-alpha-steroid 4-dehydrogenase 2 (Homo sapiens, UniProt P31213) for this entry: CCCCCN(C(=O)CCCCBr)[C@H]1CCC2C3CC[C@H]4N(C)C(=O)CC[C@]4(C)C3CC[C@@]21C (some centres not stated) ?
1000 nM

Which IC50 is reported with 3-oxo-5-alpha-steroid 4-dehydrogenase 2 (Homo sapiens, UniProt P31213) for this entry: CCCCCN(C(=O)CC)[C@H]1CCC2C3CC[C@H]4N(C)C(=O)CC[C@]4(C)C3CC[C@@]21C (some centres not stated) ?
> 100 nM

Which IC50 is reported with 3-oxo-5-alpha-steroid 4-dehydrogenase 2 (Homo sapiens, UniProt P31213) for this entry: COc1ccc(N(C(=O)C(C)C)[C@H]2CCC3C4CC[C@H]5N(C)C(=O)CC[C@]5(C)C4CC[C@@]32C)cc1 (some centres not stated) ?
> 100 nM

Which IC50 is reported with 3-oxo-5-alpha-steroid 4-dehydrogenase 2 (Homo sapiens, UniProt P31213) for this entry: CC(C)C(=O)N(c1ccc([N+](=O)[O-])cc1)[C@H]1CCC2C3CC[C@H]4N(C)C(=O)CC[C@]4(C)C3CC[C@@]21C (some centres not stated) ?
> 1000 nM

Which IC50 is reported with 3-oxo-5-alpha-steroid 4-dehydrogenase 2 (Homo sapiens, UniProt P31213) for this entry: CN1C(=O)CC[C@]2(C)C3CC[C@@]4(C)C(CC[C@@H]4N(C(=O)c4ccccc4)c4ccccc4)C3CC[C@@H]12 (some centres not stated) ?
3.75 nM

Value source: ChEMBL document CHEMBL1128284
